Form field: Cross-Reactivity of Competitive Immunoassay (one value per entry).
# System: busulfan antibodies (antisera of example 7)
# Experiment Summary: Indirect competitive microtiter plate immunoassay (ELISA), busulfan derivative 7-BSA sensitized plates
# Format: binding, mouse
# Assay Context: antibodies to Busulfan-KLH (example 7); plate coating Busulfan-BSA conjugate example 5, derivative 7; ratio of IC50 busulfan to IC50 analyte
Metric: Cross-Reactivity of Competitive Immunoassay

1. C1CCSC1 [Tetrahydrothiophene, tetrahydrothiophene]	<0.4%
2. CS(=O)(=O)OCCCCOS(C)(=O)=O	100%
3. O=S1(=O)CCC(O)C1 (stereo not shown) [Tetrahydrothiophene-3-ol-1,1-dioxide, tetrahydrothiophene-3-ol-1,1-dioxide]	<0.4%
4. O=S1(=O)CCCC1	<0.4%
